- Tested on: S. epidermidis
- protocol_details: Effects of aromatic esters of GMCHA on growth of S. epidermidis
- Assay type: cell-based
measurement_kind: S. epidermidis IC100 (µM)
Record the value in µM, omitting the unit from your answer.

// returns reported S. epidermidis IC100 for input Cc1ccc(OC(=O)C2CCC(CNC(=N)N)CC2)cc1 (centres unmarked)
120

Item: CC(C)(C)c1ccc(OC(=O)C2CCC(CNC(=N)N)CC2)cc1 (centres unmarked)
10

And for CCc1ccc(OC(=O)C2CCC(CNC(=N)N)CC2)cc1 (centres unmarked) ?
50

Lookup N=C(N)NCC1CCC(C(=O)Oc2ccc(-c3ccccc3)cc2)CC1 (centres unmarked)
1.5
